Catalogue of CC50 at 4 days readings, one per entry.
Test: Compound toxicity, WST-1, non-infected MDBK cells
Format: cell-based
Details: bovine, 4 days incubation, WST-1 readout
Protocol: To determine the anti-viral effect of the compounds, MDBK cells were infected with the cytopathic strain of BVDV(NADL) using a 0.006 to 0.01 MOI. 3000 cells were then seeded in each well of a 96-well plate containing the compound. […] Cell culture was then incubated for another 2 hrs at 37° C., after which 20 μl of 10% SDS was added to each well in order to inactivate the virus and the OD at 450 nm was determined using a microplate reader (Dynatech MR5000). […]
Where a name gives a salt, the structure may show the parent alone.
REPORTED_PROPERTY: CC50 at 4 days

COMPOUND: CC[C@@H](C)Oc1ccccc1CNC(=O)c1ccc2cccnc2n1 [Compound #10]
RESULT: > 6 µM

COMPOUND: CC(C)Oc1ccccc1CNC(=O)c1ccc2cccnc2n1 [Compound #8]
RESULT: > 62.2 µM

COMPOUND: O=C(NCc1ccccn1)c1ccc2cccnc2n1 [Compound #13]
RESULT: > 75.7 µM

COMPOUND: O=C(Nc1cccnc1)c1ccc2cccnc2n1 [Compound #29]
RESULT: > 79.9 µM

COMPOUND: O=C(NCc1ccccc1)c1ccc2cccnc2n1 [Compound #2]
RESULT: > 76 µM

COMPOUND: O=C(Nc1ccccn1)c1ccc2cccnc2n1 [Compound #15]
RESULT: > 79.9 µM

COMPOUND: COc1cccc(CNC(=O)c2ccc3cccnc3n2)c1 [Compound #4]
RESULT: > 68.2 µM

COMPOUND: O=C(NCc1ccccc1F)c1ccc2cccnc2n1 [Compound #16]
RESULT: > 71.1 µM

COMPOUND: O=C(NCc1cccnc1)c1ccc2cccnc2n1 [Compound #12]
RESULT: > 75.7 µM

COMPOUND: O=C(Nc1nccs1)c1ccc2cccnc2n1 [Compound #22]
RESULT: > 78 µM

COMPOUND: O=C(NCc1ccccc1Cl)c1ccc2cccnc2n1 [Compound #17]
RESULT: > 67.2 µM

COMPOUND: O=C(Nc1cccc(C(F)(F)F)c1)c1ccc2cccnc2n1 [Compound #30]
RESULT: 6.3 µM

COMPOUND: O=C(Nc1ccccc1)c1ccc2cccnc2n1 [Compound #28]
RESULT: > 80.2 µM

COMPOUND: O=C(Nc1cccc([N+](=O)[O-])c1)c1ccc2cccnc2n1 [Compound #19]
RESULT: > 68 µM

COMPOUND: COc1ccccc1CNC(=N)c1ccc2cccnc2n1 [Compound #27, trifluoroacetate]
RESULT: > 63.2 µM

COMPOUND: O=C(Nc1nc2ccccc2s1)c1ccc2cccnc2n1 [Compound #23]
RESULT: > 6.5 µM

COMPOUND: O=C(NCc1cccc(C(F)(F)F)c1)c1ccc2cccnc2n1 [Compound #31]
RESULT: > 60.4 µM

COMPOUND: O=C(Nc1ccccc1F)c1ccc2cccnc2n1 [Compound #24]
RESULT: > 74.8 µM

COMPOUND: COc1cc(OC)c(CNC(=O)c2ccc3cccnc3n2)c(OC)c1 [Compound #5]
RESULT: > 56.6 µM

COMPOUND: COc1ccc(CNC(=O)c2ccc3cccnc3n2)cc1 [Compound #3]
RESULT: > 68.2 µM
